All figures here come from ChEMBL document CHEMBL1129565.

Target: Amine oxidase [flavin-containing] A (Rattus norvegicus, UniProt P21396)
Sequence (P21396 whole entry): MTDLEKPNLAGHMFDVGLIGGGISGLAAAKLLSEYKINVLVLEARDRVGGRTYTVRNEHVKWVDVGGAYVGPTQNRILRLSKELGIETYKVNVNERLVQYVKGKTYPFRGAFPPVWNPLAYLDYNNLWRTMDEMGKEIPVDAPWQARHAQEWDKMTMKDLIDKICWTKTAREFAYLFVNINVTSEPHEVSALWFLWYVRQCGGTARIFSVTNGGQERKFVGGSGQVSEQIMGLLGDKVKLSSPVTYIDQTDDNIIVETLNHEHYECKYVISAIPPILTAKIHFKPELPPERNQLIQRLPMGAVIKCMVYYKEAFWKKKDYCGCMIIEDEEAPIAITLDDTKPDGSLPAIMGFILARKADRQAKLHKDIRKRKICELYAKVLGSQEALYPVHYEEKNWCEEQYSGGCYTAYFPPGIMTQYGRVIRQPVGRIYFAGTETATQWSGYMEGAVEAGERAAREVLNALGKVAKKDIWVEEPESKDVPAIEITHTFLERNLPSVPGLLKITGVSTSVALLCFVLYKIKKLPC
Assay: Inhibitory concentration against rat brain mitochondrial Monoamine oxidase A at 1 uM
Consider the following partition of reported inhibition at 1 µM into named classes: bottom: < 20%; middle: ≥ 20% and < 40%; top: ≥ 40%

Example cases with answers are listed next.
- Cc1ccc(C)c2c1[nH]c1ccc(C3=NCCN3)cc12: top
- Cc1ccc2c(c1)S(=O)(=O)c1cc(C3=NCCN3)ccc1C2=O: top
- CN1CCN=C1c1ccc2c(c1)S(=O)(=O)c1ccccc1C2=O: middle

Looking at CC(C)c1ccc2sc3cc(-c4nn[nH]n4)ccc3c(=O)c2c1 , which class would you pick?
middle

Looking at O=C1c2ccccc2S(=O)(=O)c2c1cccc2C1=NCCN1 , which class would you pick?
bottom

Looking at c1ccc2c(c1)Cc1cc(C3=NCCN3)ccc1-2 , which class would you pick?
top

Looking at CCn1nnc(-c2ccc3c(c2)S(=O)(=O)c2ccccc2C3=O)n1 , which class would you pick?
middle

Looking at O=C1c2ccc(C3=NCCN3)cc2S(=O)(=O)c2cc(C(F)(F)F)ccc21 , which class would you pick?
bottom

Looking at [O-][S+]1c2ccccc2Sc2ccc(C3=NCCN3)cc21 (stereo not drawn) , which class would you pick?
bottom

Looking at Cn1nnc(-c2ccc3c(=O)c4cc(OCCO)ccc4oc3c2)n1 , which class would you pick?
top

----------
Field: pIC50. Provide a value for each of the compounds that follow.
Target: Amine oxidase [flavin-containing] A (Rattus norvegicus, UniProt P21396)
Assay: Inhibitory concentration against rat brain mitochondrial monoamine oxidase A
Numbers only, as −log10 of the molar value.

Below, 5 compounds whose answers are already recorded.
- O=C1c2cc(N3CCSCC3)ccc2S(=O)(=O)c2cc(C3=NCCN3)ccc21: 7.70
- CC(C)c1ccc2c(c1)C(=O)c1ccc(C3=NCCN3)cc1S2(=O)=O: 7.30
- c1ccc2c(c1)Oc1ccc(C3=NCCN3)cc1S2: 7.00
- O=C1c2ccccc2S(=O)(=O)c2cc(C3=NCCN3)ccc21: 6.52
- CCCOc1ccc2sc3cc(-c4nnc(C)o4)ccc3c(=O)c2c1: 7.22

Hi team, please reply with pIC50 for each item in this list.
1. COc1nnc(-c2ccc3c(c2)S(=O)(=O)c2ccccc2C3=O)o1
2. CNc1ccc2c(c1)C(=O)c1ccc(C3=NCCN3)cc1S2(=O)=O
3. NCCNc1ccc2c(c1)C(=O)c1ccc(C3=NCCN3)cc1S2(=O)=O
4. COc1ccc2c(c1)C(=O)c1ccc(-c3nnn(C)n3)cc1S2(=O)=O
5. CCOc1ccc2c(c1)C(=O)c1ccc(C3=NCCN3)cc1S2(=O)=O

[7.10, 7.64, 6.52, 8.70, 8.15]

If you can, please state the reported pIC50 value of O=C1c2cc(Cl)ccc2S(=O)(=O)c2cc(C3=NCCN3)ccc21 .
7.15

----------
Field: IC50. Provide a value for each of the compounds that follow.
Target: Amine oxidase [flavin-containing] A (Rattus norvegicus, UniProt P21396)
Sequence (P21396 whole entry): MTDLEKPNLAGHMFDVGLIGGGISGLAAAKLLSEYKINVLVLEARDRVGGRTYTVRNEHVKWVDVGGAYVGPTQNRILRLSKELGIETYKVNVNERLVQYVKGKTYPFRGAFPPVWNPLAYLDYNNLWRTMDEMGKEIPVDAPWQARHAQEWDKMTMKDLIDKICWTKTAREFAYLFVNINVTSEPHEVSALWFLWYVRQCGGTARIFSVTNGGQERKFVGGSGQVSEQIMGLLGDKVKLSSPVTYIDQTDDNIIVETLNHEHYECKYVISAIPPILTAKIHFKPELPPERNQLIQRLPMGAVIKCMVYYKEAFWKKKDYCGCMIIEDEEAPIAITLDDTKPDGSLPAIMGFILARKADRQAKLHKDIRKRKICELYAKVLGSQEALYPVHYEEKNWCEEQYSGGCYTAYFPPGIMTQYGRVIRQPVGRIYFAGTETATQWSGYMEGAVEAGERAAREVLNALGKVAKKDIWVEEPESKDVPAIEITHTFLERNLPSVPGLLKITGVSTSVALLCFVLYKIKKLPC
Experiment: Inhibitory concentration against rat brain mitochondrial monoamine oxidase A
Give bare numbers, in nM.

• O=C1c2cc(N3CCOCC3)ccc2S(=O)(=O)c2cc(C3=NCCN3)ccc21 = 10
• CN(C)c1ccc2c(c1)C(=O)c1ccc(C3=NCCN3)cc1S2(=O)=O = 20
• Cn1nnc(-c2ccc3c(c2)S(=O)(=O)c2ccccc2O3)n1 = 2

Hi team, please reply with IC50 for each item in this list.
1. CCc1ccc2c(c1)C(=O)c1ccc(C3=NCCN3)cc1S2(=O)=O
2. c1cc2c(cc1C1=NCCN1)Sc1cc(C3=NCCN3)ccc1O2
3. CC(C)(C)c1ccc2c(c1)C(=O)c1ccc(C3=NCCN3)cc1S2(=O)=O
4. COc1ccc2c(c1)C(=O)c1ccc(-c3nnc(C)o3)cc1S2(=O)=O

1: 10; 2: 1000; 3: 800; 4: 1

Hi team, please reply with IC50 for each item in this list.
1. CC(C)c1ccc2c(c1)C(=O)c1ccc(-c3nnn(C)n3)cc1S2(=O)=O
2. CCCNc1ccc2c(c1)C(=O)c1ccc(C3=NCCN3)cc1S2(=O)=O
3. CCN(C)c1ccc2c(c1)C(=O)c1ccc(C3=NCCN3)cc1S2(=O)=O

1: 5; 2: 20; 3: 40

----------
Field: inhibition at 1 µM. Provide a value for each of the compounds that follow.
Biological target: Amine oxidase [flavin-containing] B (Rattus norvegicus, UniProt P19643)
Sequence (P19643 whole entry): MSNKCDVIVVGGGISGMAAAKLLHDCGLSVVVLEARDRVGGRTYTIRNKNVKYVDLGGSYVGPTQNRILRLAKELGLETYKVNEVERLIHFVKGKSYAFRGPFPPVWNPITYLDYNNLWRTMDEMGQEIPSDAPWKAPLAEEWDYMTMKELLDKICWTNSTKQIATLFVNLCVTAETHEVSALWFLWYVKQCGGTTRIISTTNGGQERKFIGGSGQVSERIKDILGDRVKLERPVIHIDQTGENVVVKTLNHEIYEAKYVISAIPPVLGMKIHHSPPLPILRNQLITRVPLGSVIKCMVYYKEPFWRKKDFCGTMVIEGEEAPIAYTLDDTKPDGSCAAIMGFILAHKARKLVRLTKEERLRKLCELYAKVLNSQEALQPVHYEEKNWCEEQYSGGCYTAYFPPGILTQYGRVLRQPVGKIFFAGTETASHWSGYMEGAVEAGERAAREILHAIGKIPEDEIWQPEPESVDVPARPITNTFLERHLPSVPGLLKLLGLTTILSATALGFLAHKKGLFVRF
Test: Inhibitory activity against rat brain mitochondrial Monoamine oxidase B at 1 uM
One number for each entry, in %.

Below, 2 compounds whose answers are already recorded.
- Cc1ccc2c(c1)S(=O)(=O)c1cc(C3=NCCN3)ccc1C2=O: 5
- CN1CCN=C1c1ccc2c(c1)S(=O)(=O)c1ccccc1C2=O: 18

Hi team, please reply with inhibition at 1 µM for each item in this list.
1. O=c1c2ccccc2sc2c(C3=NCCN3)cccc12
2. C=CCNc1ccc2c(c1)C(=O)c1ccc(C3=NCCN3)cc1S2(=O)=O
3. NCCNc1ccc2c(c1)C(=O)c1ccc(C3=NCCN3)cc1S2(=O)=O

[10, 12, 11]

Hi team, please reply with inhibition at 1 µM for each item in this list.
1. CC(C)c1ccc2sc3cc(-c4nn[nH]n4)ccc3c(=O)c2c1
2. O=S1(=O)c2ccccc2C(O)c2ccc(C3=NCCN3)cc21 (centres undefined)
3. CCn1nnc(-c2ccc3c(c2)S(=O)(=O)c2ccccc2C3=O)n1
4. CCNc1ccc2c(c1)C(=O)c1ccc(C3=NCCN3)cc1S2(=O)=O
5. O=C1c2ccccc2S(=O)(=O)c2c1cccc2C1=NCCN1
6. Cc1nc(-c2ccc3c(c2)Sc2ccccc2O3)no1

5
10
45
0
-6
14

Hi team, please reply with inhibition at 1 µM for each item in this list.
1. CCc1nnc(-c2ccc3c(c2)S(=O)(=O)c2ccccc2C3=O)o1
2. CCOc1ccc2c(c1)C(=O)c1ccc(C3=NCCN3)cc1S2(=O)=O
3. O=S1(=O)c2ccccc2-c2cc(C3=NCCN3)ccc21
4. O=C1c2cc(N3CCOCC3)ccc2S(=O)(=O)c2cc(C3=NCCN3)ccc21
5. O=C1c2ccc(C3=NCCN3)cc2S(=O)(=O)c2cc(C(F)(F)F)ccc21
6. O=S1(=O)c2ccccc2-c2cc(-c3nn[nH]n3)ccc21

1: 23; 2: 12; 3: 16; 4: 4; 5: 10; 6: 0

Hi team, please reply with inhibition at 1 µM for each item in this list.
1. COc1ccc2c(c1)C(=O)c1ccc(C3=NCCN3)cc1S2(=O)=O
2. Cc1nc(-c2ccc3c(c2)S(=O)(=O)c2ccccc2O3)no1

1. 33
2. 17
